Hey, just so you know, these numbers are from PubChem BioAssay.

# methodDescription: S. cerevisiae growth inhibition in restrictive medium, OD615, pilot screen, restrictive growth control, yeast lifespan reduction project (AID 706);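 note: modified DeaD lifespan yeast strain shifted to restrictive glucose medium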
# assaySetup: OD615, 48 h, at 10 µM, stronger effect = higher value
Measured growth inhibition of individual entries
Give the number; % is assumed, so skip it.

GET /values?readout=growth inhibition&item= CC(=O)Nn1cc2c(c1-c1ccccc1)c(=O)n(C)c(=O)n2C
-3.13

Would you mind telling me what growth inhibition value was observed for Cc1cc(C)c(C#N)c(SCC(=O)Nc2ccc(S(=O)(=O)Nc3onc(C)c3C)cc2)n1 ?
7.54

For CC(C)(C)NC(=O)Cn1c(=O)oc2ccc(Cl)cc21 , what is its reported growth inhibition?
5.01

Requested read-out: growth inhibition. Entry: Fc1ccc(-c2nnc3ccc(N4CCCC4)nn23)cc1
32.5

Recorded growth inhibition for CCCCCn1c(=O)[nH]c2cc(C(=O)NCCN3CCOCC3)ccc2c1=O , please?
-10.6

Requested field: growth inhibition. Item: CCOC(=O)c1sc2nc(NC(=O)C(C)(C)C)sc2c1C
5.62

Can you share its growth inhibition? I mean this compound: Oc1c(C(c2ccccc2)N2CCc3ccccc3C2)sc2ncnn12 (stereo not drawn)
8.2

// returns reported growth inhibition for input CCOC(=O)N1CCN(C(=O)COc2ccc(S(=O)(=O)NC(C)C)cc2)CC1
-20.2

Using the record for CCN(CC)C1=CC(=O)OC12CCCCC2 , report its growth inhibition.
0.735

Fill in the blank: the reported growth inhibition of O=C1CC(c2ccc(Cl)c(Cl)c2)CC(O)=C1C=NCCN1CCNCC1 (stereo not drawn) is ____.
-7.73

Request the reported growth inhibition associated with CN1C(=O)CS(=O)c2ccc(C(=O)NCCC3=CCCCC3)cc21 (stereo not drawn)
0.3

If you can, please state the reported growth inhibition value of Cc1cc(C)cc(OCCCCCNCCO)c1 .
-14.7

For the compound CC(C)c1nccn1S(=O)(=O)c1cc(Cl)ccc1Cl , what growth inhibition is on record?
-1

What measured growth inhibition goes with CCNc1nnc(-c2ccccc2OC)s1 ?
3.71

Could you share which growth inhibition value was measured for CC(C)CCN(C)C1CCN(S(=O)(=O)c2ccc(F)cc2)CC1 ?
10.4

Request the reported growth inhibition associated with CC(C)C(NS(=O)(=O)c1ccc2c(c1)oc(=O)n2C)C(=O)N1CCN(Cc2ccccc2)CC1 (stereo not drawn)
-20.3

----------
# methodDescription: RAM signaling pathway blockade in yeast – S. cerevisiae, Pdr1DBD-CYC8 efflux-inhibited sensitized strain, primary screen (AID 1298);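 note: 0% = DMSO untreated cells without growth and 100% = 10 µM 1-NA-PP1 full growth; higher means more yeast growth rescued from 5-FOA killing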
# assaySetup: S. cerevisiae cbk1-as DSE1-URA3 strain, 5-FOA growth OD615, 2 d; at 50 µM; stronger effect = higher value
measurementName: RAM network inhibition (%)
Give the number; % is assumed, so skip it.

Guide cases for RAM network inhibition, answers given:
C=CCn1c(=O)c(C(=O)Nc2ccccc2OC)c(O)c2ccccc21 ... 1.39
O=C1NCCCC1C(=O)NCCNC(=O)C(F)(F)F (configuration not stated) ... 4.25
O=c1oc2ccccc2cc1NCc1ccccc1O ... 1.22

Reported RAM network inhibition, compound O=C1NC(=O)C(CC(=O)N(Cc2ccco2)C2(C(=O)NC3CCCC3)CCCCC2)N1 (configuration not stated) : ____
-0.51

Need RAM network inhibition, item Cc1csc(C(C#N)C(=O)c2cc3ccccc3o2)n1 (configuration not stated)
0.32

Name the reported RAM network inhibition value associated with the compound COc1ccc(OCCOC(=O)Nc2ccccc2)cc1
5.48

Given the compound CCOC(=O)/C(C#N)=C1/C=Nc2ccccc2N1 , what is its reported RAM network inhibition?
0.25

Could you share which RAM network inhibition value was measured for OC(COCC1COc2ccccc2O1)CN1CCc2ccccc2C1 (configuration not stated) ?
1.37

----------
# methodDescription: viability of HCT116 without oncogenic beta-catenin – human colon tumor cells, pilot screen (AID 823);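 note: 0% = wells killed by 20 µM Hyamine and 100% = untreated DMSO cell wells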
# assaySetup: HCT116 beta-catenin knockout viability, CellTiter-Glo, 60 h; at 10 µM; stronger effect = lower value
Inconclusive results are not listed.
measurementName: viability (%)
Express the result in % but write the number alone.

These solved cases illustrate the format of a correct answer.
Cc1ccc2cc(CCNC(=O)C(C)C)c(=O)[nH]c2c1C ... 105
CCn1c(C(C#N)/C(=N\S(=O)(=O)c2cccs2)c2ccccc2)nc2ccccc21 (stereo unspecified) ... 87.4
CCC(C)Sc1nc2c(c(=O)n1C)SC(C)C2 (stereo unspecified) ... 91.6
CC1(C)CC(=O)C2(CC3=C(CC(C)(C)CC3=O)O2)C(=O)C1 ... 94.7
COC(=O)C1=C(C)NC(C)=C(C(=O)OC)C1C1CC=CCC1 (stereo unspecified) ... 90.4
COc1ccccc1C(=O)OCn1nnc2ccccc2c1=O ... 95
CC1=C(C(=O)OC2CCCCCC2)C(c2ccc(C)o2)C2=C(CCCC2=O)N1 (stereo unspecified) ... 70.8
COC(=O)c1oc2ccc(Br)cc2c1NC(C)=O ... 102

Please give the measured viability for this compound: O=C(c1ccc(=O)[nH]c1)N(Cc1ccco1)C1(C(=O)NC2CCCC2)CCCCC1
98.6

# get_value(readout='viability', item= O=C(COc1ccc(Cl)cc1)Nc1nnc(-c2ccc3c(c2)CCCC3)o1 )
101

For the compound shown here, CCOC(=O)N1CCC(NC(=O)C2CCN(Cc3nc(-c4ccc(CC)cc4)oc3C)CC2)CC1 , give the reported viability.
84.2

----------
# methodDescription: MRP1 drug-resistance reversers in H69AR cells – cell-based, doxorubicin co-treatment, pilot screen (AID 601)
# assaySetup: H69AR cells + 2 uM doxorubicin, CellTiter-Glo, 72 h; measured here: viability with 2 uM doxorubicin; at 10 µM; stronger effect = lower value
Field: class. Source value: viability. Ranges: lo = under 70%, mid = from 70% up to 90%, hi = 90% and over

Solved entries (count: 3):
Cc1ccccc1-c1nc(CN2CCC(C(=O)NC3CCN(Cc4ccccc4)CC3)CC2)c(C)o1 ... mid
CC1Cc2nc(SCC(=O)N3CCCc4ccccc43)n(C)c(=O)c2S1 (stereo not given) ... lo
CCC(=O)c1cc(F)c(N2CCN(C(=O)c3ccco3)CC2)cc1C ... hi

Which class is correct for the following compound? COc1ccc(N2CCN(c3oc(COc4ccccc4Cl)nc3C#N)CC2)cc1
mid

----------
# methodDescription: S. cerevisiae growth inhibition in restrictive medium, OD615, pilot screen, restrictive growth control, yeast lifespan reduction project (AID 706);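 note: modified DeaD lifespan yeast strain shifted to restrictive glucose medium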
# assaySetup: OD615, 48 h, at 10 µM, stronger effect = higher value
// reported growth inhibition per item
Dear colleague, please return just the value in %, with no unit written.

Some molecules with known growth inhibition results, for comparison:
N=C1C(c2nc3ccccc3c(=O)[nH]2)=C(O)CN1CCc1ccccc1 ... -7.82
CC(C)N1C(=O)CCC1C(=O)N1CCN(c2ccccn2)CC1 (stereo not given) ... -15.7
O=C(Cc1c(C(=O)O)[nH]c2ccccc12)NC1CCN(Cc2ccccc2)CC1 ... -14.9
COc1cc(NC(=O)C2CCCN2S(=O)(=O)c2cccc3cccnc23)cc(OC)c1OC (stereo not given) ... -10.7

// returns reported growth inhibition for input Cc1cccc(N2CC(c3nc4ccccc4n3C)CC2=O)c1C (stereo not given)
3.04

----------
# methodDescription: doxorubicin toxicity protection in MRP-1 cells – H69AR cells, CellTiter-Glo, duplicate, MRP-1 activator project, pilot screen (AID 807);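 note: compound pretreatment 18-22 h then 72 h combined with doxorubicin; 0% = doxorubicin alone and 100% = vehicle without doxorubicin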
# assaySetup: H69AR viability with doxorubicin, CellTiter-Glo luminescence; at 10 µM; stronger effect = higher value
Below, each entry is listed alongside its reported viability increase.
Could you give me the number in %? Just the number is fine.

Recorded viability increase of C=CCSc1nnc(-c2cccnc2)o1 , please.
-1.02

If you can, please state the reported viability increase value of CCOc1ccccc1C1C(C(=O)Nc2ccc(OC)cc2)=C(C)Nc2nc(CCCO)nn21 (stereo unspecified) .
-0.17

I would be grateful if you could share the reported viability increase for CCCCNC(=O)c1ccc2c(c1)N(CC)C(=O)c1ccccc1S2(=O)=O .
0.81

// query viability increase value for entry CC1C(=O)CC(c2ccccc2)N(C)C1c1ccccc1 (stereo unspecified)
-4.71

Return reported viability increase; argument: COc1cccc(C2=NOC(C(=O)Nc3cc(C)nn3-c3ccccc3)C2)c1OC (stereo unspecified)
-5.04

Returns the measured viability increase for the input compound. Input: O=C(Cn1nc(Cc2cccnc2)c2ccccc2c1=O)NCCCN1CCCC1=O
-0.8

----------
# methodDescription: S. cerevisiae growth inhibition in permissive medium (OD615), pilot counter-assay for S. cerevisiae lifespan shortening project, permissive growth control (AID 705)
# assaySetup: OD615, 24 h, at 10 µM, stronger effect = higher value
Calls of active or inactive are those of the source.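 The calls were made as follows: active = growth inhibition above 25% in both replicates, a cutoff set 3 SD above the mean; inconclusive = above 25% in only one replicate; inactive = the rest.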
Listed below: growth inhibition values for each entry.

Examples from the recorded data:
Cc1ccc(-n2ncc3c(N4CCCC(C)C4)ncnc32)c(C)c1 (stereo unspecified) ... -2.59% (inactive)
CCOC(=O)C(C(=O)Nc1ccccc1)C1CCCCC1 (stereo unspecified) ... -7.22% (inactive)
O=C1CCC(C(=O)NC2(C(=O)NC3CCCCC3)CCCCC2)N1 (stereo unspecified) ... -0.36% (inactive)
CCOc1ccc2nc(NC(=O)c3ccoc3C)sc2c1 ... 1.53% (inactive)
Cc1nc2ccccc2c2oc(C(=O)N3CCC(N4CCCCC4)CC3)cc12 ... -9.32% (inactive)
CCOc1ccc(-n2c(SCC(=O)NCc3ccco3)nc3c(c2=O)SCC3)cc1 ... -21.1% (inactive)
COC(=O)c1oc2ccc(Br)cc2c1NC(=O)CCCN1C(=O)c2ccccc2C1=O ... -10.3% (inactive)
COc1cc(/C=N/n2cnnc2)ccc1OCC(=O)N1CCOCC1 ... -6.31% (inactive)
CCN(CC)C(=O)Oc1ccc(NC(C)=O)cc1 ... -4.01% (inactive)
CCN1C(=O)c2cccc3c(NC(=O)c4ccc(S(=O)(=O)N(C)C)cc4)ccc1c23 ... -11.7% (inactive)

Next up:
Give the measured growth inhibition of CCOC(=O)Nc1sc(NS(=O)(=O)c2ccccc2)nc1C .
-10.4% (inactive)
